- Tested on: Pseudomonas putida KT2440
- procedure-text: Bacterial growth in microscale cultivation, P. putida
- Type: cell-based
- conditions: complex medium, 4 µM, relative to control
quantity-measured: Lag Phase

>>> result_value("O=C(/C=C/c1ccccc1O)c1ccc(O)cc1O [Compound 7, 2′,4′,2-Trihydroxychalcone]")
"100,0%"
>>> result_value("O=C(/C=C/c1ccc(O)cc1)c1ccc(O)cc1O [Compound 6, 2′,4′,4-Trihydroxychalcone]")
"99,4%"
>>> result_value("O=C(/C=C/c1ccccc1)c1ccc(O)cc1O [Compound 4, 2′,4′-Dihydroxychalcone]")
"105,0%"
>>> result_value("O=C(/C=C/c1ccc(O)cc1)c1ccccc1O [Compound 3, 2′,4-Dihydroxychalcone]")
"97,7%"
>>> result_value("O=C(/C=C/c1ccc(O)c(O)c1)c1ccc(O)cc1O [Compound 8, 2′,4′,3,4-Tetrahydroxy-chalcone]")
"93,2%"

---

- Tested on: Bacillus subtilis 168
- procedure-text: Bacterial growth in microscale cultivation, B. subtilis
- Format: cell-based
- conditions: Bacillus subtilis, 168, complex medium, 40 µM, relative to control; read-out: Final Backscatter
quantity-measured: activity at 40 µM (%)

>>> result_value("O=C(/C=C/c1ccc(O)cc1)c1ccc(O)cc1O [Compound 6, 2′,4′,4-Trihydroxychalcone]")
99.9
>>> result_value("O=C(/C=C/c1ccc(O)cc1)c1ccccc1O [Compound 3, 2′,4-Dihydroxychalcone]")
97.1
>>> result_value("O=C(/C=C/c1ccccc1)c1ccc(O)cc1O [Compound 4, 2′,4′-Dihydroxychalcone]")
94.3
>>> result_value("O=C(/C=C/c1ccccc1O)c1ccc(O)cc1O [Compound 7, 2′,4′,2-Trihydroxychalcone]")
102
>>> result_value("O=C(/C=C/c1ccc(O)c(O)c1)c1ccc(O)cc1O [Compound 8, 2′,4′,3,4-Tetrahydroxy-chalcone]")
98.9

---

- Test system: Amaranthus retroflexus
- procedure-text: In planta growth experiment, A. retroflexus
- Assay type: in vivo
- conditions: shoots sprayed, 3 mM
quantity-measured: Influence on plants

>>> result_value("O=C(/C=C/c1ccccc1)c1ccc(O)cc1O [Compound 4, 2′,4′-Dihydroxychalcone]")
"No"
>>> result_value("O=C(/C=C/c1cc(O)c(O)c(O)c1)c1ccc(O)cc1O [Compound 9, 2′,4′,3,4,5-Pentahydroxychalcone]")
"No"
>>> result_value("O=C(/C=C/c1ccc(O)c(O)c1)c1ccc(O)cc1O [Compound 8, 2′,4′,3,4-Tetrahydroxy-chalcone]")
"No"
